EXPERIMENT_NOTES: Caspase-3/7 induction in HepG2 cells by small molecules, qHTS assay (AID 1346978); note: % is set by controls: 0 for no effect and ±100 for the full control effect; nearly all actives have a fitted effect of over 15% in size
CONDITION: HepG2 caspase-3/7 activation, Caspase-Glo luminescence, 17 h; series mostly up to 92.4 µM
Records with an inconclusive call do not appear. Active and inactive are the calls of the source. Calls come from the whole dose curve; as a rule, active = well fitted activation curve with a large enough effect in the repeat runs; inconclusive = weak or mixed curves; inactive = flat fitted curve, though single readings scatter.
OBSERVED_PROPERTY: caspase activation

compound=CCN(C=O)CC observed_property="caspase activation" test_value=inactive
compound=O=C(CO)[C@@H](O)[C@H](O)[C@H](O)CO observed_property="caspase activation" test_value=inactive
compound=CC1=CC(=O)[C@H]2C[C@@H]1C2(C)C observed_property="caspase activation" test_value=inactive
compound="C=CCOCC(O)CO (stereo unspecified)" observed_property="caspase activation" test_value=inactive
compound=CCN1CCOCC1 observed_property="caspase activation" test_value=inactive
compound=CCCCN1C=CN(C)C1 observed_property="caspase activation" test_value="1.6% [at 19 µM] (inactive)"
compound=CC(=O)Oc1cccc(C)c1 observed_property="caspase activation" test_value=inactive
compound=CCCCCCCCCC[N+](C)(C)[O-] observed_property="caspase activation" test_value=inactive
compound="NCCCC(N)(C(=O)O)C(F)F (stereo unspecified)" observed_property="caspase activation" test_value=inactive
compound=O=S(=O)(O)c1cccc(S(=O)(=O)O)c1 observed_property="caspase activation" test_value=inactive
compound=CNCCO observed_property="caspase activation" test_value=inactive
compound=O=C(O)CCSCCC(=O)O observed_property="caspase activation" test_value=inactive
compound=O=S(=O)(O)c1cccc2c(S(=O)(=O)O)cccc12 observed_property="caspase activation" test_value=inactive
compound=O=Cc1cccc(Br)c1 observed_property="caspase activation" test_value=inactive
compound=C1CCC2(CCCCO2)OC1 observed_property="caspase activation" test_value=inactive
compound=CCN(Cc1ccccc1)c1ccccc1 observed_property="caspase activation" test_value=inactive

###

EXPERIMENT_NOTES: qHTS assay to identify small molecule agonists of the AP-1 signaling pathway - cell viability counter screen (AID 1159525); note: nearly all actives have a fitted effect of over 55% in size
CONDITION: ME-180 (cervical carcinoma) AP-1-bla cells viability, ATP luminescence, 5 h; series mostly up to 76.8 µM
Results filed as inconclusive are left out. The source made the active and inactive calls. The call rests on the fitted dose curve.
OBSERVED_PROPERTY: viability change, negative = cytotoxic

compound=CCCCOCCOC(=O)COc1cc(Cl)c(Cl)cc1Cl test_value=inactive
compound=CCOC(=O)COC(=O)c1ccccc1C(=O)OCC test_value=inactive
compound=CCCCCCCCCCOc1cc2c(=O)c(C(=O)OCC)c[nH]c2cc1OCC test_value="15.6% [at 6.97 µM] (inactive)"
compound=C=CN1CCCCCC1=O test_value=inactive
compound=CCCCCCCCCCCCCCCCCCO test_value=inactive
compound=Nc1ccccn1 test_value=inactive
compound=CC1(C)[C@@H]2CC[C@@]1(C)[C@H](O)C2 test_value=inactive
compound=NO test_value=inactive
compound=CCOC(=O)c1cnc2c(cnn2CC)c1NN=C(C)C test_value=inactive
compound=Cc1cc(C)c(N=Nc2c(O)c(S(=O)(=O)O)cc3cc(S(=O)(=O)O)ccc23)cc1C test_value="-9.8% [at 6.97 µM] (inactive)"
compound=CCCCCCCCCCCCCCC(=O)O test_value=inactive
compound=CN(C)C(=O)Oc1ccc[n+](C)c1 test_value=inactive
compound=O=[N+]([O-])c1cncn1CCN1CCOCC1 test_value=inactive
compound="C=COCC1CCC(COC=C)CC1 (centres undefined)" test_value=inactive
